Listed here: items and their measured Potency.
- experimental.details: Cellular viability qHTS for adrenocortical cancer (ACC) cell line SW-13 (AID 1963989); further: potency means the concentration at half of the fitted maximal effect; nearly all actives have a fitted effect of over 65% in size
- condition.context: SW-13 ACC cells viability, CellTiter-Glo, 48 h
Records with an inconclusive call do not appear. Calls of active or inactive are those of the source. The call rests on the fitted dose curve; in most records, active means well fitted cell-killing curve with a large enough effect; inconclusive means small, poorly fitted or top-dose-only effect; inactive means flat fitted curve, though single readings scatter.

C/C(=N\NC(=O)c1cccc(S(=O)(=O)N2CCOCC2)c1)c1cc(Cl)ccc1O :: 8.91 µM (active)

Any idea what Potency was measured for `CCN1CCN(Cc2ccc(Nc3ncc(F)c(-c4cc(F)c5nc(C)n(C(C)C)c5c4)n3)nc2)CC1` ?
15.8 µM (active)

Then what about the compound `Cc1ccc(-c2ccc3ncc4c(c3n2)n(C2CCN(C(=O)[C@H](C)O)CC2)c(=O)n4C)cn1` ?
0.794 µM (active)

Then what about the compound `CN1CCN(c2ccc(C(=O)Nc3n[nH]c4ccc(Cc5cc(F)cc(F)c5)cc34)c(NC3CCOCC3)c2)CC1` ?
3.16 µM (active)

Then what about the compound `CC[C@@]1(O)C[C@H](O[C@H]2C[C@H](N(C)C)[C@H](O[C@H]3C[C@H](O)[C@H](O[C@H]4CCC(=O)[C@H](C)O4)[C@H](C)O3)[C@H](C)O2)c2c(cc3c(c2O)C(=O)c2c(O)cccc2C3=O)[C@@H]1C(=O)OC` ?
10 µM (active)

Then what about the compound `CC[C@]12C=CCN3CC[C@@]4(c5cc([C@@]6(C(=O)OC)C[C@H]7C[C@@H](C(C)(F)F)CN(Cc8c6[nH]c6ccccc86)C7)c(OC)cc5N(C)[C@H]4[C@@](O)(C(=O)OC)[C@@H]1OC(C)=O)[C@@H]32` ?
0.123 µM (active)

---

Listed here: items and their measured viability (% of control).
- experimental.details: Viability qHTS for spleen associated tyrosine kinase inhibitor (SYKi) naive MV4-11 cells (AID 1963823); further: nearly all actives have a fitted effect of over 40% in size
- condition.context: MV4-11 AML viability, CellTiter-Glo luminescence, 72 h; series mostly up to 45 µM
Results filed as inconclusive are left out. Activity calls are given as the source filed them. The call rests on the fitted dose curve; in most records, active means well fitted cell-killing curve with a large enough effect; inconclusive means small, poorly fitted or top-dose-only effect, or effect the other way; inactive means no such curve, though single readings can be large or run the other way. *1 amine or outer side, *2 acyl side, *3 side chain or, on linkers, in order; H or OH if unused. Where a SMILES comes first, the peptide text is derived from it. Bridges are numbered along the chain shown (N, C = ends). [ ]: non-standard residue; d: D form. The star is where a group is joined. ξ: configuration not given here. ΔAla(3-NHCONH2) = NC(=O)NC=C(N)C(=O)O; X2 = NC1=NCCC(C(N[*:1])C(=O)[*:2])N1; ξβ3hOrn = NCCCC(N)CC(=O)*; Dap = NC[CH](N)C(=O)O

These solved cases illustrate the format of a correct answer.
C[C@@H]1O[C@@H](O[C@H]2[C@H](OC(=O)[C@]34CCC(C)(C)C[C@H]3C3=CCC5[C@@]6(C)CC[C@H](O[C@@H]7O[C@H](CO[C@@H]8OC[C@H](O)[C@H](O)[C@H]8O)[C@@H](O)[C@H](O)[C@H]7O)C(C)(C)C6CC[C@@]5(C)[C@]3(C)C[C@H]4O)OC[C@@H](O)[C@@H]2O)[C@H](O)[C@H](O)[C@H]1O[C@@H]1OC[C@H](O)[C@H](O[C@@H]2OC[C@@H](O)[C@H](O)[C@H]2O)[C@H]1O (stereo not given in full) :: 84.1% [at 9.25 µM] (inactive)
CC1CN(c2cc3c(cc2F)c(=O)c(C(=O)O)cn3-c2ccc(F)cc2F)CCN1 (stereo not given) :: 91.3% [at 4.97 µM] (inactive)
NCCCC(N)CC(=O)NCC1NC(=O)C(CO)NC(=O)C(N)CNC(=O)C(C2CCN=C(N)N2)NC(=O)C(=CNC(N)=O)NC1=O (stereo not drawn) (H-[Dap]S[Dap](ξβ3hOrn)[ΔAla(3-NHCONH2)][X2]; lactam 1-C; configuration not given here) :: 84.9% [at 0.588 µM] (inactive)

Any idea what viability (% of control) was measured for C[C@@H]1O[C@@H](O[C@H]2[C@H](O[C@H]3[C@H](O[C@H]4CC[C@@]5(C)C(CC[C@]6(C)C5CC=C5[C@@H]7CC(C)(C)CC(=O)[C@]7(C)CC[C@]56C)[C@@]4(C)CO)O[C@H](C(=O)O)[C@@H](O)[C@@H]3O)O[C@H](CO)[C@H](O)[C@@H]2O)[C@H](O)[C@H](O)[C@H]1O (stereo not given in full) ?
81.7% [at 9.25 µM] (inactive)

Then what about the compound CC1(C)CCC2(C(=O)OC3OC(CO)C(O)C(O)C3O)CCC3(C)C(=CCC4C5(C)CCC(OC6OC(C(=O)O)C(OC7OC(CO)C(O)C(O)C7O)C(OC7OC(CO)C(O)C(O)C7O)C6O)C(C)(C)C5CCC43C)C2C1 (stereo not given) ?
77.9% [at 9.25 µM] (inactive)

Then what about the compound CC1OC(O[C@@H]2[C@@H](O)[C@H](OC(=O)[C@]34CCC(C)(C)C[C@H]3C3=CCC5[C@@]6(C)CC[C@H](O[C@@H]7O[C@H](C(=O)O)[C@@H](O)[C@H](O[C@@H]8OC[C@@H](O)[C@H](O)[C@H]8O)[C@H]7O[C@@H]7O[C@H](CO)[C@H](O)[C@H](O)[C@H]7O)[C@@](C)(C=O)C6CC[C@@]5(C)[C@]3(C)C[C@H]4O)O[C@H](C)[C@@H]2OC2OC(C)C(OC3OCC(O)C(O)C3O)C(O)C2O)C(O)C(O)C1O (stereo not given in full) ?
94.8% [at 9.25 µM] (inactive)

Then what about the compound C/C=C(\C)C(=O)O[C@@H](C)[C@H]1CC[C@]2(O)C3CCC4C[C@@H](OC5CC(OC)C(OC6CC(OC)C(OC7CC(OC)C(OC8OC(C)C(OC9OC(CO)C(O)C(O)C9O)C(OC)C8O)C(C)O7)C(C)O6)C(C)O5)CC[C@]4(C)C3[C@H](O)[C@@H](O)[C@]12C (stereo not given in full) ?
34.7% [at 9.25 µM] (inactive)

---

- experimental.details: Viability qHTS for spleen associated tyrosine kinase inhibitor (SYKi) naive MV4-11 cells (AID 1963823); further: nearly all actives have a fitted effect of over 40% in size
- condition.context: MV4-11 AML viability, CellTiter-Glo luminescence, 72 h; series mostly up to 45 µM
Results filed as inconclusive are left out. The source made the active and inactive calls. Calls follow the shape of the dose curve; as a rule, active = well fitted cell-killing curve with a large enough effect; inconclusive = small, poorly fitted or top-dose-only effect, or effect the other way; inactive = no such curve, though single readings can be large or run the other way.
Hi! Could you answer with just one of these? 1 (active), -1 (inactive)

CC1(C)CCC2=C(O1)c1ccccc1C(=O)C2=O :: 1

Please state the recorded outcome for this compound: `CN(c1ncccc1CNc1nc(Nc2ccc3c(c2)CC(=O)N3)ncc1C(F)(F)F)S(C)(=O)=O`
1

Then what about the compound COC(=O)c1cc(OC)cc(OC)c1C(=O)c1c(OC)cc2c(c1O)C1CCCC(C)(O2)O1 (centres undefined) ?
-1

Then what about the compound CN1CCN(C2Cc3ccccc3Sc3ccc(Cl)cc32)CC1 (centres undefined) ?
1

Then what about the compound `CC(=O)OC[C@]12[C@H](OC(C)=O)[C@H](OC(=O)c3ccccc3)[C@@H]3[C@@H](OC(C)=O)[C@]1(OC3(C)C)[C@H](C)C[C@H](OC(C)=O)[C@@H]2OC(=O)c1ccccc1` ?
-1

Then what about the compound `Oc1c(Cl)cc(Cl)c(Cl)c1Cc1c(O)c(Cl)cc(Cl)c1Cl` ?
1

Then what about the compound C=C1C(=O)OC2C1CCC1(C)C(O)CC=C(C)C21 (centres undefined) ?
1

Then what about the compound CC(C)=CCC(O)[C@](C)(O)C1[C@H](O)C[C@@]2(C)C3CC=C4C(C[C@H](O)[C@@H](O[C@@H]5O[C@H](CO)[C@@H](O)[C@H](O)[C@H]5O)C4(C)C)[C@]3(C)C(=O)C[C@]12C (some centres undefined) ?
-1

Then what about the compound `c1coc(CNc2ncnc3nc[nH]c23)c1` ?
-1

---

- experimental.details: Quantitative highthroughput screen to assess conditional lethalithy of SEM cells grown in Human Plasma-Like Medium with dialyzed fetal bovine serum (HPLM+ds) (AID 1963882); further: nearly all actives have a fitted effect of over 35% in size
- condition.context: SEM B-ALL cells in HPLM+ds, CellTiter-Glo viability, 48 h; series mostly up to 45.8 µM
- Method: Assay Provider: Jason Cantor Ph.D. Department of Biochemistry University of Wisconsin-Madison, Madison, WI, USA Chemical screening studies have identified drug sensitivities across hundreds of cancer cell lines but most putative therapeutics fail to translate. […] Sets of conditional anticancer compounds spanned phases of clinical development and included non-oncology drugs were assessed. […] 6; Detection; Luminescence, Viewlux PerkinElmer. […]
Records with an inconclusive call do not appear. Activity calls are given as the source filed them. Calls follow the shape of the dose curve; as a rule, active = well fitted cell-killing curve with a large enough effect; inconclusive = small, poorly fitted or top-dose-only effect, or effect the other way; inactive = no such curve, though single readings can be large or run the other way. Peptide text beside a SMILES is read from it. * marks the point of attachment. Cbz = O=C(OCc1ccccc1)*
Hi! Could you answer with just one of these? active, inactive

C[C@@H](N)C1CCC(C(=O)Nc2ccncc2)CC1 (stereo partly specified) :: inactive
O=C(NCC1CN(c2ccc(N3CCOCC3=O)cc2)C(=O)O1)c1ccc(Cl)s1 (stereo unspecified) :: inactive
O=c1cc(-c2ccc(O)cc2)oc2cc(O)cc(O)c12 :: inactive
COc1cc(N2CCC(C(N)=O)CC2)ccc1Nc1nc(N)c(Cl)c(Nc2ccccc2S(=O)(=O)C(C)C)n1 :: active
CCOC(=O)O[C@]1(C(=O)OCCl)CC[C@@H]2[C@H]3CCC4=CC(=O)C=C[C@]4(C)[C@@H]3[C@@H](O)C[C@@]21C :: inactive

Please state the recorded outcome for this compound: `Cc1ccc(-c2ncn(-c3ccc(Nc4nccc(-c5cccc(N6CCOCC6)c5)n4)cc3)n2)cn1`
active

Then what about the compound `C[C@@H](Cc1cc2c(c(C(N)=O)c1)N(CCCO)CC2)NCCOc1ccccc1OCC(F)(F)F` ?
inactive

Then what about the compound `O=C1NC(=O)C(=Cc2ccc(-c3ccc(F)cc3O)o2)S1` ?
inactive

Then what about the compound `CN1CCN(c2cc(C(=O)Nc3ccc4c(c3)-c3c(c(C(N)=O)nn3-c3ccc(F)cc3)CC4)c(Cl)cn2)CC1` ?
active

Then what about the compound `Cn1cc(-c2ccc3ncc(Cc4ccc5ncccc5c4)n3n2)cn1` ?
active

Then what about the compound `C[N+](C)([O-])CCNc1ccc(NCC[N+](C)(C)[O-])c2c1C(=O)c1c(O)ccc(O)c1C2=O` ?
active

Then what about the compound `C=CCNC1=C2C[C@@H](C)C[C@H](OC)[C@@H](O)[C@@H](C)C=C(C)[C@H](OC(N)=O)[C@@H](OC)C=CC=C(C)C(=O)NC(=CC1=O)C2=O` ?
active

Then what about the compound `O=c1[nH]cnc2c1ncn2[C@H]1CC[C@@H](CO)O1` ?
active

Then what about the compound CC(C)C[C@@H](C=O)NC(=O)[C@H](CC(C)C)NC(=O)[C@H](CC(C)C)NC(=O)OCc1ccccc1 (Cbz-Leu-Leu-Leu-aldehyde) ?
active

Then what about the compound `Cc1ccnc(NS(=O)(=O)c2ccc(NC(=O)Nc3ccc(S(=O)(=O)Nc4nccc(C)n4)cc3)cc2)n1` ?
active

Then what about the compound `CC(=O)NC[C@H]1CN(c2ccc(N3CCOCC3)c(F)c2)C(=O)O1` ?
inactive

Then what about the compound Clc1ccc(CCC(Cn2ccnc2)Sc2c(Cl)cccc2Cl)cc1 (stereo unspecified) ?
inactive

Then what about the compound `CCC[C@@H](NC(=O)[C@@H]1[C@H]2CCC[C@@H]2CN1C(=O)[C@@H](NC(=O)[C@@H](NC(=O)c1cnccn1)C1CCCCC1)C(C)(C)C)C(=O)C(=O)NC1CC1` ?
inactive

Then what about the compound `C[C@H]1Oc2cc(cnc2N)-c2c(nn(C)c2C#N)CN(C)C(=O)c2ccc(F)cc21` ?
inactive

Then what about the compound `COc1c(O)cc2c(c1O)[C@@H]1O[C@H](CO)[C@@H](O)[C@H](O)[C@H]1OC2=O` ?
active

Then what about the compound `Cc1cc(Nc2cc(N3CCN(C)CC3)nc(Sc3ccc(NC(=O)C4CC4)cc3)n2)n[nH]1` ?
active

Then what about the compound `c1cnc2cc3c(cc2n1)C1CNCC3C1` ?
inactive

Then what about the compound `CCC(C=C[C@@H]1OC(=O)C=C[C@H]1C)=C[C@H](C)CC=CC(C)=C[C@@H](C)C(=O)[C@@H](C)[C@H](O)[C@@H](C)CC(C)=CC(=O)O` ?
active

Then what about the compound COc1ccc2nc(S(=O)Cc3ncc(C)c(OC)c3C)[nH]c2c1 (stereo unspecified) ?
inactive

Then what about the compound CCC(C)(Oc1ccc(C2(c3ccc(OC(C)(CC)C(=O)O)cc3)CCCCC2)cc1)C(=O)O (stereo unspecified) ?
inactive

Then what about the compound `Clc1cccc(-n2nnnc2NCc2ccccc2Oc2ccccn2)c1Cl` ?
inactive

Then what about the compound COc1ccc2cc(-c3nc(-c4ccc(S(C)=O)cc4)[nH]c3-c3ccncc3)ccc2c1 (stereo unspecified) ?
inactive
